# Tested on: Streptococcus pneumoniae
# Protocol summary: In vitro antibacterial activity of 5979 strain of Gram positive bacteria Streptococcus pneumoniae
# Assay type: functional
Quantity kind: MIC

Chemical smiles	Quantity kind	Measured
CC[C@H]1OC(=O)/C(C)=C/[C@H](C)[C@@H](O[C@@H]2O[C@H](C)C[C@H](N(C)C)[C@H]2O)[C@@](C)(OC)C[C@@H](C)C(=O)[C@H](C)[C@H]2N(NC/C=C/c3ccc(NC(C)=O)cc3)C(=O)O[C@]12C	MIC	> 64 µg/mL
CC[C@H]1OC(=O)/C(C)=C/[C@H](C)[C@@H](O[C@@H]2O[C@H](C)C[C@H](N(C)C)[C@H]2O)[C@@](C)(OC)C[C@@H](C)[C@H]2[C@H](C)[C@H]3N(C(=O)O[C@]13C)N2CCCc1ccccc1	MIC	64 µg/mL
CC[C@H]1OC(=O)/C(C)=C/[C@H](C)[C@@H](O[C@@H]2O[C@H](C)C[C@H](N(C)C)[C@H]2O)[C@@](C)(OC)C[C@@H](C)C(=O)[C@H](C)[C@H]2N(NC/C=C/c3ccc([N+](=O)[O-])o3)C(=O)O[C@]12C	MIC	> 128 µg/mL

* * *

# Tested on: Streptococcus pyogenes
# Protocol summary: In vitro antibacterial activity of 930 strain of Gram positive bacteria Streptococcus pyogenes
# Format: functional

Chemical smiles	Assayed system	MIC
CC[C@H]1OC(=O)/C(C)=C/[C@H](C)[C@@H](O[C@@H]2O[C@H](C)C[C@H](N(C)C)[C@H]2O)[C@@](C)(OC)C[C@@H](C)C(=O)[C@H](C)[C@H]2N(NCc3c[nH]c4ccccc34)C(=O)O[C@]12C	Streptococcus pyogenes	> 64 µg/mL
CC[C@H]1OC(=O)/C(C)=C/[C@H](C)[C@@H](O[C@@H]2O[C@H](C)C[C@H](N(C)C)[C@H]2O)[C@@](C)(OC)C[C@@H](C)C(=O)[C@H](C)[C@H]2N(NCc3cccnc3)C(=O)O[C@]12C	Streptococcus pyogenes	> 64 µg/mL
CC[C@H]1OC(=O)/C(C)=C/[C@H](C)[C@@H](O[C@@H]2O[C@H](C)C[C@H](N(C)C)[C@H]2O)[C@@](C)(OC)C[C@@H](C)C(=O)[C@H](C)[C@H]2N(NCCc3ccc(Oc4ccccc4)cc3)C(=O)O[C@]12C	Streptococcus pyogenes	8 µg/mL
CC[C@H]1OC(=O)/C(C)=C/[C@H](C)[C@@H](O[C@@H]2O[C@H](C)C[C@H](N(C)C)[C@H]2O)[C@@](C)(OC)C[C@@H](C)C2=NN3C(=O)O[C@@]1(C)[C@H]3[C@H]2C	Streptococcus pyogenes	> 128 µg/mL
CC[C@H]1OC(=O)/C(C)=C/[C@H](C)[C@@H](O[C@@H]2O[C@H](C)C[C@H](N(C)C)[C@H]2O)[C@@](C)(OC)C[C@@H](C)C(=O)[C@H](C)[C@H]2N(NCCc3ccccc3)C(=O)O[C@]12C	Streptococcus pyogenes	64 µg/mL

* * *

# Test system: Streptococcus pneumoniae
# Protocol summary: In vitro antibacterial activity of 5979 strain of Gram positive bacteria Streptococcus pneumoniae
# Type: functional
Recorded measurements of MIC, one per entry
Quantity kind: MIC

Chemical smiles	Measured
CC[C@H]1OC(=O)/C(C)=C/[C@H](C)[C@@H](O[C@@H]2O[C@H](C)C[C@H](N(C)C)[C@H]2O)[C@@](C)(OC)C[C@@H](C)C(=O)[C@H](C)[C@H]2N(NCc3cccc(O)c3)C(=O)O[C@]12C	> 128 µg/mL
CC[C@H]1OC(=O)/C(C)=C/[C@H](C)[C@@H](O[C@@H]2O[C@H](C)C[C@H](N(C)C)[C@H]2O)[C@@](C)(OC)C[C@@H](C)C(=O)[C@H](C)[C@H]2N(NCc3ccc(N(C)C)cc3)C(=O)O[C@]12C	> 128 µg/mL
CC[C@H]1OC(=O)/C(C)=C/[C@H](C)[C@@H](O[C@@H]2O[C@H](C)C[C@H](N(C)C)[C@H]2O)[C@@](C)(OC)C[C@@H](C)C(=O)[C@H](C)[C@H]2N(NCCCc3ccccc3Cl)C(=O)O[C@]12C	32 µg/mL
CC[C@H]1OC(=O)/C(C)=C/[C@H](C)[C@@H](O[C@@H]2O[C@H](C)C[C@H](N(C)C)[C@H]2O)[C@@](C)(OC)C[C@@H](C)C(=O)[C@H](C)[C@H]2N(NCCCc3ccnc4ccccc34)C(=O)O[C@]12C	> 64 µg/mL
CC[C@H]1OC(=O)/C(C)=C/[C@H](C)[C@@H](O[C@@H]2O[C@H](C)C[C@H](N(C)C)[C@H]2O)[C@@](C)(OC)C[C@@H](C)C(=O)[C@H](C)[C@H]2N(NCc3ccccc3)C(=O)O[C@]12C	> 64 µg/mL
CC[C@H]1OC(=O)/C(C)=C/[C@H](C)[C@@H](O[C@@H]2O[C@H](C)C[C@H](N(C)C)[C@H]2O)[C@@](C)(OC)C[C@@H](C)C(=O)[C@H](C)[C@H]2N(NCCCc3cccc(N)c3)C(=O)O[C@]12C	> 128 µg/mL
CC[C@H]1OC(=O)/C(C)=C/[C@H](C)[C@@H](O[C@@H]2O[C@H](C)C[C@H](N(C)C)[C@H]2O)[C@@](C)(OC)C[C@@H](C)C(=O)[C@@H](C)[C@H]2N(NC/C=C/c3ccccc3)C(=O)O[C@]12C	16 µg/mL
CC[C@H]1OC(=O)/C(C)=C/[C@H](C)[C@@H](O[C@@H]2O[C@H](C)C[C@H](N(C)C)[C@H]2O)[C@@](C)(OC)C[C@@H](C)C(=O)[C@H](C)[C@H]2N(NCc3ccccn3)C(=O)O[C@]12C	> 128 µg/mL
CC[C@H]1OC(=O)/C(C)=C/[C@H](C)[C@@H](O[C@@H]2O[C@H](C)C[C@H](N(C)C)[C@H]2O)[C@@](C)(OC)C[C@@H](C)C(=O)[C@H](C)[C@H]2N(NCc3ccc(Cl)cc3)C(=O)O[C@]12C	32 µg/mL

* * *

# Tested on: Streptococcus pneumoniae
# Protocol summary: In vitro antibacterial activity of 5649 strain of Gram positive bacteria Streptococcus pneumoniae
# Type: functional
Recorded measurements of MIC, one per entry
Quantity kind: MIC (mg/L)

Chemical smiles	Unit string	Measured
CC[C@H]1OC(=O)[C@H](C)[C@@H](O[C@H]2C[C@@](C)(OC)[C@@H](O)[C@H](C)O2)[C@H](C)[C@@H](O[C@@H]2O[C@H](C)C[C@H](N(C)C)[C@H]2O)[C@](C)(O)C[C@@H](C)C(=O)[C@H](C)[C@@H](O)[C@]1(C)O	mg/L	16
CC[C@H]1OC(=O)/C(C)=C/[C@H](C)[C@@H](O[C@@H]2O[C@H](C)C[C@H](N(C)C)[C@H]2O)[C@@](C)(OC)C[C@@H](C)C(=O)[C@H](C)[C@H]2N(NC/C=C/c3ccc([N+](=O)[O-])o3)C(=O)O[C@]12C	mg/L	0.5
CC[C@H]1OC(=O)/C(C)=C/[C@H](C)[C@@H](O[C@@H]2O[C@H](C)C[C@H](N(C)C)[C@H]2O)[C@@](C)(OC)C[C@@H](C)C(=O)[C@H](C)[C@H]2N(NCCCc3ccccc3)C(=O)O[C@]12C	mg/L	2
CC[C@H]1OC(=O)/C(C)=C/[C@H](C)[C@@H](O[C@@H]2O[C@H](C)C[C@H](N(C)C)[C@H]2O)[C@@](C)(OC)C[C@@H](C)C(=O)[C@H](C)[C@H]2N(NCCCc3ccccc3[N+](=O)[O-])C(=O)O[C@]12C	mg/L	1
CC[C@H]1OC(=O)/C(C)=C/[C@H](C)[C@@H](O[C@@H]2O[C@H](C)C[C@H](N(C)C)[C@H]2O)[C@@](C)(OC)C[C@@H](C)C(=O)[C@@H](C)[C@H]2N(N)C(=O)O[C@]12C	mg/L	16

* * *

# System: Staphylococcus aureus
# Protocol summary: In vitro antibacterial activity of A5177 strain of Gram positive bacteria Staphylococcus aureus
# Assay type: functional
Recorded measurements of MIC, one per entry
Quantity kind: MIC (µg/mL)

Chemical smiles	Measured
CC[C@H]1OC(=O)/C(C)=C/[C@H](C)[C@@H](O[C@@H]2O[C@H](C)C[C@H](N(C)C)[C@H]2O)[C@@](C)(OC)C[C@@H](C)C(=O)[C@H](C)[C@H]2N(NCCc3ccc(Oc4ccccc4)cc3)C(=O)O[C@]12C	1.56
CC[C@H]1OC(=O)/C(C)=C/[C@H](C)[C@@H](O[C@@H]2O[C@H](C)C[C@H](N(C)C)[C@H]2O)[C@@](C)(OC)C[C@@H](C)C(=O)[C@H](C)[C@H]2N(NC/C=C/c3ccccc3)C(=O)O[C@]12C	0.1

* * *

Recorded measurements of MIC, one per entry
# Test system: Staphylococcus aureus
# Protocol summary: In vitro antibacterial activity of A5177 strain of Gram positive bacteria Staphylococcus aureus
# Type: functional

Chemical smiles	Assayed system	Unit string	MIC
CC[C@H]1OC(=O)/C(C)=C/[C@H](C)[C@@H](O[C@@H]2O[C@H](C)C[C@H](N(C)C)[C@H]2O)[C@@](C)(OC)C[C@@H](C)C(=O)[C@H](C)[C@H]2N(NCc3cccnc3)C(=O)O[C@]12C	Staphylococcus aureus	µg/mL	0.39
CC[C@H]1OC(=O)/C(C)=C/[C@H](C)[C@@H](O[C@@H]2O[C@H](C)C[C@H](N(C)C)[C@H]2O)[C@@](C)(OC)C[C@@H](C)C(=O)[C@H](C)[C@H]2N(NCc3ccc(O)cc3)C(=O)O[C@]12C	Staphylococcus aureus	µg/mL	0.2
CC[C@H]1OC(=O)/C(C)=C/[C@H](C)[C@@H](O[C@@H]2O[C@H](C)C[C@H](N(C)C)[C@H]2O)[C@@](C)(OC)C[C@@H](C)C(=O)[C@H](C)[C@H]2N(NCc3cccc(O)c3)C(=O)O[C@]12C	Staphylococcus aureus	µg/mL	0.1
